Origin of the recorded values: patent US11434242B2

Entries and their DβH activity in ADR (% Control)
# ASSAY_SYSTEM: Dopamine beta hydroxylase (Rattus norvegicus, UniProt Q05754)
# Construct: Samples were constituted by the right and left adrenals of each animal; from tissue; host or cells: Wistar rat adrenal glands (homogenate)
# Sequence (Q05754 whole entry): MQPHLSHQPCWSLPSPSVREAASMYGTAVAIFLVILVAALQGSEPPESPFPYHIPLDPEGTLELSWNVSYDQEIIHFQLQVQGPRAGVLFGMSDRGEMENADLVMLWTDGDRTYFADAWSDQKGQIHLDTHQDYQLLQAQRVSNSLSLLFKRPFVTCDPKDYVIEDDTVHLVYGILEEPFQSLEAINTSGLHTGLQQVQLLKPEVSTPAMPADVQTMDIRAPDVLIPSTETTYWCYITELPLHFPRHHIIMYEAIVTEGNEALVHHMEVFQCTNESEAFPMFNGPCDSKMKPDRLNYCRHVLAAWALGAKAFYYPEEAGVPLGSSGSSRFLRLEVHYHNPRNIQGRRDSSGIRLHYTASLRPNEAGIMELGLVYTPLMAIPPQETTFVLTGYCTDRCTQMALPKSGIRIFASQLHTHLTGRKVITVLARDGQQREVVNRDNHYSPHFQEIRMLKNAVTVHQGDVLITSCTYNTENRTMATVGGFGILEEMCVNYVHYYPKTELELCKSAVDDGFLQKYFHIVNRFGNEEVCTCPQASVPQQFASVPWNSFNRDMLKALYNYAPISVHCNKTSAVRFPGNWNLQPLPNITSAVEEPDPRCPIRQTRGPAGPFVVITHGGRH
# ASSAY_PROCEDURE: DβH activity in rat adrenal gland homogenates after oral administration
# Assay type: in vivo
# PROTOCOL_CONDITIONS: rat adrenal gland homogenates, 10 mg/kg oral, maximal within 6 h post-dose, mean±SD of 4 rats
Structures can show the parent of a compound that is named as a salt.

# MOLECULE, UNIT_ABBREV, DβH activity in ADR (% Control)
measured = [
    ("F.Fc1ccc(Br)cc1[C@]12C[C@H]1c1c(CCN3CCOCC3)[nH]c(=S)n1C2 [Example 191]", "% Control", 45),
    ("CN(C(=O)Cc1c2n(c(=S)n1C)C[C@@]1(c3c(F)ccc(Cl)c3F)C[C@@H]21)C1COC1 [Example 403]", "% Control", 0),
    ("Cn1c(CC(=O)O)c2n(c1=S)C[C@@]1(c3c(F)ccc(Cl)c3F)C[C@@H]21 [Example 231]", "% Control", 43),
    ("Cl.Cn1c(CCN[C@@H]2CCOC2)c2n(c1=S)C[C@H](c1c(F)ccc(Br)c1F)C2 [Example 256]", "% Control", 44),
    ("Fc1ccc(Br)c(F)c1[C@@H]1Cc2c(CCN3CCOCC3)[nH]c(=S)n2C1 [Example 195]", "% Control", 21),
    ("Fc1cc(F)c(F)c([C@H]2Cc3c(CCCN4CCCC4)[nH]c(=S)n3C2)c1F [Example 219, hydrochloride]", "% Control", 43),
    ("Cl.Fc1ccc(Cl)cc1[C@]12C[C@H]1c1c(CCN3CCOCC3)[nH]c(=S)n1C2 [Example 174]", "% Control", 39),
]
